Assay: in vivo
Details: male, Sprague-Dawley, rat, po, 1 mg/kg, Average (n = 3) plasma concentrations
Reported endpoint: concentration at 60 min
Just so you know, I need the unit written after the number.

Incoming: Give its concentration at 60 min value. Item: CCCCC[C@H](O)CC[C@@H]1[C@H]2Cc3cccc(OCC(=O)O)c3C[C@H]2C[C@H]1O
Outgoing: 2.06 ng/mL

---

Experiment: in vivo
Details: male, Sprague-Dawley, rat, po, 1 mg/kg, Average AUC480 min
Reported endpoint: AUC(0-t)

Incoming: Give its AUC(0-t) value. Item: CCCCC[C@H](O)CC[C@@H]1[C@H]2Cc3cccc(OCC(=O)O)c3C[C@H]2C[C@H]1O [Treprostinil, treprostinil]
Outgoing: 17.3 ng·h/mL
